Sourced from ChEMBL document CHEMBL6083194

# System: HEK-293T
# ASSAY_METHOD_TEXT: Cytotoxicity against human HEK293T cells by CCK8 assay
# Format: functional, cell-based
MEASUREMENT_KIND: IC50 (µM)

molecule_smiles=Cc1cccc(C#N)c1Cc1c[nH]c2ccccc12 experimental_result=59

====

# Tested on: Pseudomonas aeruginosa
# ASSAY_METHOD_TEXT: Inhibition of biofilm formation in Pseudomonas aeruginosa PAO1 incubated for 24 hrs crystal violet staining based SEM assay
# Type: functional, organism-based
MEASUREMENT_KIND: inhibition

compound="CCOC(=O)C(C#N)Cc1c[nH]c2ccccc12 (configuration not stated)" experimental_result=Dose-dependent-effect
compound=N#Cc1ccccc1Cc1c[nH]c2cc(Br)ccc12 experimental_result=Dose-dependent-effect
compound=Cc1[nH]c2ccccc2c1Cc1ccccc1C#N experimental_result=Dose-dependent-effect
compound=Cc1ccc(C#N)c(Cc2c[nH]c3ccccc23)c1 experimental_result=Dose-dependent-effect
compound=CCc1ccccc1C#N experimental_result=Dose-dependent-effect
compound=N#CCCc1c[nH]c2ccccc12 experimental_result=Dose-dependent-effect
compound=N#Cc1ccccc1Cc1c[nH]c2cccc(F)c12 experimental_result=Dose-dependent-effect
